Data origin: PubChem BioAssay

Please respond with reported fluorescence slope for every item in the list.
targetOfAssay: Voltage-gated potassium channel subunit beta-2 (Rattus norvegicus)
experimentalProtocol: KvBeta enzyme negative modulators, primary screen, biochemical, NADPH fluorescence (AID 622);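 further: slope of raw intensity against log time taken from 70 to 1610 s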
conditionsUsed: recombinant KvBeta, 4-cyanobenzaldehyde reduction, at 10 µM, active compounds read high
// print number alone

Reported fluorescence slope ( CCCN1CCN(CCCNC(=O)C2CCCN(c3nc4ccc(OCC)cc4s3)C2)CC1 (stereo unspecified) ) = -0.398

Lab book: fluorescence slope of CCC(NC(=O)Nc1nccs1)(C(F)(F)F)C(F)(F)F noted as -0.475

Record O=C(CN1C(=O)c2ccccc2S1(=O)=O)NCc1ccccc1Cl . Reported fluorescence slope: -0.599

Note to self: fluorescence slope recorded for C=CCN1C(=O)CC(C(=O)NC)SC1=Nc1ccc(C(=O)OCC)cc1 (stereo unspecified) was -0.407

Short answer for COc1cccc(NC(=O)C2CC(=O)n3cnnc3S2)c1 (stereo unspecified) : fluorescence slope was -0.339

The reported fluorescence slope of the compound CCOC(=O)N1CCN(C(=O)CSc2nnc(-c3cccc(Cl)c3)o2)CC1 was -0.494

* * *

Kindly supply the reported fluorescence slope values for the records listed here.
targetOfAssay: Voltage-gated potassium channel subunit beta-2 (Rattus norvegicus) (UniProt P62483)
Sequence (P62483 whole entry, looked up): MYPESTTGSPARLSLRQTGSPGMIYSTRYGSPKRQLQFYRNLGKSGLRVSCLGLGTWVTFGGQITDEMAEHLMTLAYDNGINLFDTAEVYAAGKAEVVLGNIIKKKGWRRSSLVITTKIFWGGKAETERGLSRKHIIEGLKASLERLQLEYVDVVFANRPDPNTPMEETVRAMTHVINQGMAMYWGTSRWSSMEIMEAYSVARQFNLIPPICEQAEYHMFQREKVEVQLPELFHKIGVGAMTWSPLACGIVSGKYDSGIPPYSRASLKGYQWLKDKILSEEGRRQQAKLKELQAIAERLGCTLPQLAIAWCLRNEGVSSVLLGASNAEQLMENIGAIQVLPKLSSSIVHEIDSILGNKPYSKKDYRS
experimentalProtocol: KvBeta enzyme negative modulators, primary screen, biochemical, NADPH fluorescence (AID 622);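 further: slope of raw intensity against log time taken from 70 to 1610 s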
conditionsUsed: recombinant KvBeta, 4-cyanobenzaldehyde reduction, at 10 µM, active compounds read high
Give a plain numeric answer without units written out.

Data point: O=C(Nc1nnc(SCc2ccccc2F)s1)c1ccco1 ; fluorescence slope = -0.502

Data point: COc1ccc(OC)c(C2C(C(=O)Nc3ccc(F)cc3)=C(C)Nc3nc(CCCO)nn32)c1 (stereo not given) ; fluorescence slope = -0.427

Short answer for Cc1cc(C)n(-c2nc(C)nc3sc4c(c23)CCC(C)C4)n1 (stereo not given) : fluorescence slope was -0.465

The compound identified as Cn1c(=O)c2c(nc(CN3CCOCC3)n2CC(O)CO)n(C)c1=O (stereo not given) registered its fluorescence slope at -0.427

Entry N#CC1=C(SCC(=O)NC23CC4CC(CC(C4)C2)C3)NC(=O)C(C#N)C12CCCCC2 (stereo not given) — recorded fluorescence slope = -0.519

// sample Cc1cc(NC(=O)c2cccc(S(=O)(=O)N3CC(c4ccccc4)CC3=O)c2)no1 (stereo not given) , its fluorescence slope was -0.562

Notebook: Clc1cc2c(c(Cn3cnc4ccccc43)c1)OCOC2 , fluorescence slope read as -0.595

Value of fluorescence slope reported for the compound COC(=O)c1ccc(CN(C(C)=O)c2ccccc2)o1 is -0.471

# fluorescence slope (compound: C=CCOC(=O)C1=C(C)NC(SCC(=O)Nc2ccc(C)c(Cl)c2)=C(C#N)C1c1ccco1 (stereo not given) ) is -0.465

Lookup result for CCCCSc1nnc2n(CCc3ccccc3)c(=O)c3c4c(sc3n12)COC(C)(C)C4 ; measured fluorescence slope: -0.334

* * *

targetOfAssay: Dual specificity protein phosphatase 6 (Homo sapiens)
experimentalProtocol: DUSP6 inhibitors restoring Erk phosphorylation by chemical complementation, primary imaging in DUSP6-transfected HeLa (AID 609);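 further: phospho-Erk level distribution per well compared with pooled transfected vehicle control wells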
conditionsUsed: HeLa MKP-3 transfected, phospho-Erk imaging KS statistic; at 10 µM; active compounds read high; cells stimulated with TPA for 15 min
Please respond with reported inhibition for every item in the list.
The reply should be a number in %, with the unit left off.

The reported value for CCOC(=O)CNC(=O)CCCCCC(=O)NCC(=O)OCC in terms of inhibition is 11.4

compound CNc1oc(-c2cccs2)nc1C#N , inhibition observed: 1.63

So, COc1cccc(C2/C(=C(\O)c3ccc4c(c3)OCCO4)C(=O)C(=O)N2CCCN(C)C)c1OC (stereo unspecified) ? Its inhibition was -6.86

Looking up Cn1c(=O)[nH]c(=O)c2c1nc(Br)n2CCSc1nnnn1-c1ccccc1 , I found its inhibition recorded as 3.42

Form: compound = C=CCOc1ccc(/C(O)=C2/C(=O)C(=O)N(CCCN3CCOCC3)C2c2ccc(OC)cc2)cc1 (stereo unspecified) ; inhibition = 14

So, CCc1nc(N2CCOCC2)c(C#N)c2c1CCCC2 ? Its inhibition was 9.42

For reference, reported inhibition for COc1ccc(CNc2oc(COc3ccc(Cl)cc3)nc2C#N)cc1 stands at -5.62

Record CCN(CC)CCN1C(=O)c2ccccc2NC1c1cc(OC)c(OC)c(OC)c1 (stereo unspecified) . Reported inhibition: 3.49

Short answer for Cc1nnc(SCC(=O)N2CCOCC2)c2ccccc12 : inhibition was 1.63

Note to self: inhibition recorded for O=c1[nH]cnc2c1cnn2Cc1ccccc1 was -3.97

So, Cc1cc(=O)n2[nH]c(N3C(=O)CCC3=O)nc2n1 ? Its inhibition was -5.95

Per the records, this compound ( COC(=O)CSc1nc(-c2cccs2)ccc1C#N ) has inhibition equal to 2.92

The measured inhibition associated with COC(=O)C(NC(C)=O)(Nc1ccc(Br)cn1)C(F)(F)F (stereo unspecified) reads -4.59

The compound listed as COC(=O)c1ccccc1NC(=O)C1COc2ccccc2O1 (stereo unspecified) has a reported inhibition of -0.674

// CCOC(=O)c1ccc(NC(=O)COc2ccccc2OC)cc1 : inhibition value = 33.3

Query Cc1ccc(-n2ncc3c(NCCCN4CCCC4=O)ncnc32)c(C)c1 yields inhibition of 13.4

# inhibition of O=S(=O)(/C=C/c1ccccc1)Nc1ccc2c(c1)OCO2 = -2.59

The compound identified as CCCCSc1nc(N)c(C#N)c(-c2cccs2)c1C#N registered its inhibition at -4.7

Form field inhibition, entry C=CCn1c(N)c(C(=O)Nc2ccccc2)c2nc3ccccc3nc21 : 9.07

response.value for O=c1oc2c(CN3CCCCC3)c(O)ccc2c2c1CCCCC2 (field: inhibition) = 14.4

Recorded inhibition (compound COC(=O)c1[nH]c(C)c(/C(O)=C2\C(=O)C(=O)N(CCN3CCOCC3)C2c2ccccc2OC)c1C (stereo unspecified) ): -7.28

compound O=C1NC(=O)C(c2cn(-c3ccccc3)nc2-c2ccc(F)cc2)N1 (stereo unspecified) , inhibition observed: 3.49

Looking up Cc1cc2ccccc2cc(C)c1=O , I see its inhibition listed as -0.584

According to the records, this compound COC(=O)/C=c1/s/c(=C(/C#N)C(=O)N2CCCCC2)n(-c2ccccc2)c1=O displays inhibition of -5.81

Record COc1cc(C2C(C(=O)c3sc(C)nc3C)=C(O)C(=O)N2CCN(C)C)cc(OC)c1OC (stereo unspecified) . Reported inhibition: 3.56

Lab note: measured inhibition of C=CCn1c(C2CC(=O)N(c3ccc(C)cc3)C2)nc2ccccc21 (stereo unspecified) was -2.29

The recorded inhibition for entry O=C(NCCN1CCCCC1)/C(=N\O)c1ccccc1 equals 23.8

Record Cc1ccc(-c2nn(CCC(=O)NCC3CCCO3)c(=O)c3ccccc23)cc1 (stereo unspecified) , field inhibition: -7.28

The reported inhibition of the compound O=C(c1ccccc1)n1c(=S)nc2ccccn21 was 7.21

Sample O=C(CN1C(=O)c2ccccc2C1=O)OCN1C(=O)c2ccccc2C1=O ; inhibition observed: 3.97

# inhibition (compound: Cc1ccc(S(=O)(=O)/C(C#N)=C/c2c(N3CCN(C)CC3)nc3ccccn3c2=O)cc1 ) is 1.04

Consider CCOC(=O)NC(Nc1sc2c(c1C(N)=O)CCCC2)(C(=O)OCC)C(F)(F)F (stereo unspecified) . Its measured inhibition is 16.5

Entry O=C(Nc1ccccc1)c1cc(N2CCOCC2)nc2ccccc12 — recorded inhibition = 6.51

Per the records, this compound ( CCOc1ccc2c(c1)n([O-])c1c([n+]2=O)CCCC1 ) has inhibition equal to 23.4

The measured inhibition associated with CC12CN3CC(=O)N4CC5(C)CN(CC(C)(C4)C5=O)C(=O)CN(C1)CC(C)(C3)C2=O reads 1.42

Entry O=C(c1ccc(-n2cnnn2)cc1)N1CCOCC1 ; inhibition = 4.72

The reported inhibition of the compound N#Cc1cc(Oc2cccc3cccnc23)c(-n2nnc3ccccc32)cc1C#N was 6.04

Short answer for COC(=O)C(NC(=O)c1ccc(F)cc1)(Nc1nc(C)cs1)C(F)(F)F (stereo unspecified) : inhibition was -3.95

response.value for Cc1ccc(S(=O)(=O)c2cc3c(=O)n4cccc(C)c4nc3n(CC3CCCO3)c2=N)cc1 (stereo unspecified) (field: inhibition) = -8.27

get_value(item= Cc1ccc(CNC(=O)c2cc3c(=O)n4ccccc4nc3n(CC3CCCO3)c2=N)cc1 (stereo unspecified) , readout=inhibition) returns 2.71

// field: inhibition; key: COc1ccc(CN(C)CCc2ccccn2)c(OC)c1OC ; value = -3.95

// Oc1oc(-c2ccco2)nc1C=Nc1cccc(Cl)c1 : inhibition value = -12.6

According to the records, this compound CCC(=O)Nc1nc2ccccc2n1Cc1ccccc1C displays inhibition of -3.97

Given item C=CCN1C(=O)CC(C(=O)NC)SC1=Nc1ccc(C(=O)OCC)cc1 (stereo unspecified) , the value recorded as its inhibition is -2.09

Short answer for COCC(C)Nc1ncnc2c1cnn2-c1ccc(Cl)cc1 (stereo unspecified) : inhibition was 3.42

Documented inhibition of CSc1nc2[nH]c3c(c2c2ncnn12)CCCC3 : 1.98
